Readings of Kd for the listed binders
Biological target: T1, IFN-αJ1 (human, UniProt P01567 24-189)
T1 construct: also called IFN-α7; alpha J1
Assay: ProteOn, one antigen concentration
Please respond with the number in nM and leave the unit unwritten.

BINDER	READOUT_KIND	REPORTED_VALUE
IFWM3316 (antibody, V domains shown, VH IFWH591, VL IFWL1022; converted mAb; also called IFWB3051) VH: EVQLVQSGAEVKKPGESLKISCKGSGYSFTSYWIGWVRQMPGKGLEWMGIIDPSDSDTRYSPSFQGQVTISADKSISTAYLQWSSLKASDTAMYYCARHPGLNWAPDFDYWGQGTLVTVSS VL: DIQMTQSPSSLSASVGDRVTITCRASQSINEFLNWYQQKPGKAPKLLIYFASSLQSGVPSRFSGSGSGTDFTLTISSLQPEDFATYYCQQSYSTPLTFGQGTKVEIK	Kd	0.07
IFWM3358 (antibody, V domains shown, VH IFWH624, VL IFWL1041; converted mAb; also called IFWB3093) VH: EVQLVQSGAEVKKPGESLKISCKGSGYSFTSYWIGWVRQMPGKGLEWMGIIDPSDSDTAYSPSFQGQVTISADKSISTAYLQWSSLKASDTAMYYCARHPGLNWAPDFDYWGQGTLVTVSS VL: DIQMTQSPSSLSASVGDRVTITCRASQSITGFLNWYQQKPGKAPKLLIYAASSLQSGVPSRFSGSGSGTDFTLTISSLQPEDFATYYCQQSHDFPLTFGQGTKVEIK	Kd	0.223
IFWM3340 (antibody, V domains shown, VH IFWH624, VL IFWL983; converted mAb; also called IFWB3075) VH: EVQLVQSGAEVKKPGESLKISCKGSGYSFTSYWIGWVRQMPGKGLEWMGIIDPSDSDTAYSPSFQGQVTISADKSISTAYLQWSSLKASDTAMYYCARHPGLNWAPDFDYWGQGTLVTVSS VL: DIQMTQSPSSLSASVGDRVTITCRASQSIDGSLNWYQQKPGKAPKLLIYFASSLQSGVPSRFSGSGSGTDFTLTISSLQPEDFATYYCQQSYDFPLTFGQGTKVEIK	Kd	0.124
IFWM3315 (antibody, V domains shown, VH IFWH591, VL IFWL1017; converted mAb; also called IFWB3050) VH: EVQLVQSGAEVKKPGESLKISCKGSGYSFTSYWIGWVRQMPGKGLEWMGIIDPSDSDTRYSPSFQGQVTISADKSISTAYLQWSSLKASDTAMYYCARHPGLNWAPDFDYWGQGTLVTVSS VL: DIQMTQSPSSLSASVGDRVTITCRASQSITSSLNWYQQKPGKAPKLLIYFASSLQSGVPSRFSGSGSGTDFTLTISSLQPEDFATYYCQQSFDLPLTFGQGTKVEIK	Kd	0.134
IFWM3314 (antibody, V domains shown, VH IFWH591, VL IFWL1014; converted mAb; also called IFWB3049) VH: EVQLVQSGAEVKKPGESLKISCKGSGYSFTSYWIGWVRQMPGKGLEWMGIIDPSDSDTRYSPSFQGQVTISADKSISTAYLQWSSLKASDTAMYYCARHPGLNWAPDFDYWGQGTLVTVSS VL: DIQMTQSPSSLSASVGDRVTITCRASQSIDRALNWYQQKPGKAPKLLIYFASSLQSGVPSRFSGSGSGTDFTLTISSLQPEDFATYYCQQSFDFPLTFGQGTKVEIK	Kd	0.039

Return reported Kd; argument: IFWM3345 (antibody, V domains shown, VH IFWH624, VL IFWL1000; converted mAb; also called IFWB3080) VH: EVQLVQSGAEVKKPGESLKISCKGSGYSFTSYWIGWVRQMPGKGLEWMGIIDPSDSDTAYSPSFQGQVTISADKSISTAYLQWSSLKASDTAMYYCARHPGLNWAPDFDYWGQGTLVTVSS VL: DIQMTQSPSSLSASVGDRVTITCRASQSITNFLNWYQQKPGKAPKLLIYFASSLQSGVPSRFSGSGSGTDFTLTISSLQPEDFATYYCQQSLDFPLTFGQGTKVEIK
0.169

Could you tell me which Kd is on file for IFWM3322 (antibody, V domains shown, VH IFWH591, VL IFWL1051; converted mAb; also called IFWB3057) VH: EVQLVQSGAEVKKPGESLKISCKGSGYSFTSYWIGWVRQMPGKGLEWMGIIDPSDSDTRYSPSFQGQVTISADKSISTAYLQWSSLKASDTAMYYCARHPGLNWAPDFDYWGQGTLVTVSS VL: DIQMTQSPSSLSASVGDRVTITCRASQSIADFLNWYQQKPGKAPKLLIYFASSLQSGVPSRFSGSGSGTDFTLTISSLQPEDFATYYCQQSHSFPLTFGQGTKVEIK ?
0.127

Endpoint output: Kd of IFWM3361 (antibody, V domains shown, VH IFWH624, VL IFWL1051; converted mAb; also called IFWB3096) VH: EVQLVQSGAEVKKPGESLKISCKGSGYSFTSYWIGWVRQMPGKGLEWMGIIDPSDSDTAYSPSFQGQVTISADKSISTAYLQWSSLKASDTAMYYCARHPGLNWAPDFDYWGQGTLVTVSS VL: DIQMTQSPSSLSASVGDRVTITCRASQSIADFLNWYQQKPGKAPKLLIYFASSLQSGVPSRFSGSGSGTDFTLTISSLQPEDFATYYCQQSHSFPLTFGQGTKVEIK . Value?
0.388

For the binder shown here, IFWM3333 (antibody, V domains shown, VH IFWH591, VL IFWL1076; converted mAb; also called IFWB3068) VH: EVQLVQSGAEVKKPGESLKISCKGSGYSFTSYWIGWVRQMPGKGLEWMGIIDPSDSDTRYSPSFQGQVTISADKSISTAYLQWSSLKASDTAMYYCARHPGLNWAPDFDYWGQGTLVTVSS VL: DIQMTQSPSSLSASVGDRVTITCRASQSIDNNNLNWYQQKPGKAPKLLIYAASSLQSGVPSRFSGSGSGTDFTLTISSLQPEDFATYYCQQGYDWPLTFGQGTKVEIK , give the reported Kd.
0.607

Endpoint output: Kd of IFWM3303 (antibody, V domains shown, VH IFWH591, VL IFWL992; converted mAb; also called IFWB3038) VH: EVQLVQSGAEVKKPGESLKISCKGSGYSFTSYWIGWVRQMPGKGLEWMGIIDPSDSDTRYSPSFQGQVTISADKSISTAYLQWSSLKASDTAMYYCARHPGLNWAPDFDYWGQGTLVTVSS VL: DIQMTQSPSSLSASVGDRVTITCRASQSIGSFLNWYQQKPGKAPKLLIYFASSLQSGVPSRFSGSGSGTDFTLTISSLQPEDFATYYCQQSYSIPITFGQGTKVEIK . Value?
0.157
